Test protocol: Cytotoxicity against 3T3 cells
Type: cell-based
Test conditions: mouse, 3T3 cells; read-out: Cytotoxicity 3T3 EC50
I'd appreciate it if you could supply pEC50 values for the items below.
pEC50 (log units): -log10 of the concentration in mol/L.

Q: // Input: "COc1ccc(C(=O)Nc2cc(C(F)(F)F)cc(NC(=O)c3cc(C(=O)Nc4cc(C(F)(F)F)cc(N)c4SCCN)ncn3)c2SCCN)cc1OC" . Output its pEC50 only.
A: 4.04

Q: // Input: "N#Cc1ccc(C(=O)Nc2cc(C(F)(F)F)cc(NC(=O)c3cc(C(=O)Nc4cc(C(F)(F)F)cc(N)c4SCCN)ncn3)c2SCCN)cc1" . Output its pEC50 only.
A: 4.66

Q: // Input: "NCCCOc1cccc(-n2cc(-c3cccc(-c4cn(-c5cccc(OCCCN)c5)nn4)c3)nn2)c1" . Output its pEC50 only.
A: 4.40

Q: // Input: "N=C(N)NCCCCC(=O)Nc1cc(Br)cc(NC(=O)c2cc(C(=O)Nc3cc(Br)cc(NC(=O)CCCCNC(=N)N)c3SCCO)ncn2)c1SCCO" . Output its pEC50 only.
A: 3.96

Q: // Input: "N=C(N)NCCCCOc1cc(OCCCCNC(=N)N)c(C(F)(F)F)cc1NC(=O)Nc1ccc(NC(=O)Nc2cc(C(F)(F)F)c(OCCCCNC(=N)N)cc2OCCCCNC(=N)N)cc1" . Output its pEC50 only.
A: 4.43

Q: // Input: "N#Cc1ccc(C(=O)Nc2cc(C(F)(F)F)cc(NC(=O)c3cc(C(=O)Nc4cc(C(F)(F)F)cc(NC(=O)c5ccc(C#N)cc5)c4SCCN)ncn3)c2SCCN)cc1" . Output its pEC50 only.
A: 3.07

Q: // Input: "N#Cc1cccc(C(=O)Nc2cc(NC(=O)c3cc(C(=O)Nc4cc(NC(=O)c5cccc(C#N)c5)cc(C(F)(F)F)c4)c(OCCN)cc3OCCN)cc(C(F)(F)F)c2)c1" . Output its pEC50 only.
A: 3.04

Q: // Input: "NCCSc1ccc(NC(=O)c2cc(C(=O)Nc3ccc(SCCN)cc3)ncn2)cc1" . Output its pEC50 only.
A: 3.02

Q: // Input: "COc1cc(SCCNC(=N)N)c(C(F)(F)F)cc1NC(=O)c1cc(C(=O)Nc2cc(C(F)(F)F)c(SCCNC(=N)N)cc2OC)ncn1" . Output its pEC50 only.
A: 3.16

Q: // Input: "NCCSc1c(N)cc(C(F)(F)F)cc1NC(=O)c1cc(C(=O)Nc2cc(C(F)(F)F)cc(NC(=O)c3cccnc3)c2SCCN)ncn1" . Output its pEC50 only.
A: 4.48

Recorded values, source patent US20150094294A1.
